# MIC per record follows
system: Aspergillus terreus AT49; assay: MIC, YAG medium; type: cell-based; conditions: Aspergillus terreus, 24 h at 35° C, MIC banded into grades, read-out: MIC grade, A. terreus 49
quantity_measured: MIC

COCCn1ccc(-c2ccccc2)c1C(=O)C(=O)Nc1ccccc1	> 10 µg/mL
Cc1cc(-c2ccccc2)c(C(=O)C(=O)Nc2cccc3ncccc23)n1C	< 1 µg/mL
Cc1cc(-c2ccccc2)c(C(=O)C(=O)Nc2ccc(N3CCN(c4ccc(CN5CCOCC5)cn4)CC3)cc2)n1C	< 1 µg/mL
COCCc1cc(C)n(-c2ccccc2)c1C(=O)C(=O)Nc1ccc(N2CCN(c3cc(C)cc(C)n3)CC2)cc1	> 10 µg/mL
Cc1cc(-c2ccccc2)c(C(=O)C(=O)Nc2ccc3ccccc3c2)n1C	< 1 µg/mL
Cc1cc(-c2ccccc2)c(C(=O)C(=O)Nc2ccc(N3CCCCC3)c(F)c2)n1C	< 1 µg/mL
COCCn1c(C)cc(-c2ccccc2)c1C(=O)C(=O)Nc1ccc(-c2ncco2)cc1	< 1 µg/mL
Cc1cc(-c2ccccc2)c(C(=O)C(=O)Nc2ccc(-c3ncco3)cc2)n1C	< 1 µg/mL
COCCn1ccc(-c2ccccc2)c1C(=O)C(=O)Nc1ccc(N2CCN(c3cc(C)cc(C)n3)CC2)cc1	< 1 µg/mL
Cc1cc(C)nc(N2CCN(c3ccc(NC(=O)C(=O)c4[nH]c(C)cc4-c4ccccc4)cc3)CC2)c1	< 1 µg/mL
COCCn1c(C)cc(-c2ccccc2)c1C(=O)C(=O)Nc1cccc2ncccc12	> 10 µg/mL

---

tested on: Aspergillus flavus; experiment: MIC, RPMI medium; type: cell-based; conditions: Aspergillus flavus, MIC banded into grades, read-out: MIC grade, A. flavus
# MIC per record follows
quantity_measured: MIC

Cc1ccnc(N2CCN(c3ccc(NC(=O)C(=O)c4c(-c5ccccc5)cc(C)n4C)cc3)CC2)c1 [Example 40]	< 1 µg/mL
Cc1cc(-c2ccccc2)c(C(=O)C(=O)Nc2ccc(N3CCN(c4ccc(CN5CCOCC5)cn4)CC3)cc2)n1C [Example 120]	< 1 µg/mL
Cc1cc(-c2ccccc2)c(C(=O)C(=O)Nc2cccc3c2CCO3)n1C [Example 23]	< 1 µg/mL
Cc1cc(-c2ccccc2)c(C(=O)C(=O)Nc2cccc3ncccc23)n1C [Example 32]	1 to 10 µg/mL
Cc1cc(-c2ccccc2)c(C(=O)C(=O)Nc2ccc(N3CCN(C(=O)C(C)C)CC3)cc2)n1C [Example 145]	< 1 µg/mL
Cc1cc(C)nc(N2CCN(c3ccc(NC(=O)C(=O)c4[nH]c(C)cc4-c4ccccc4)cc3)CC2)c1 [Example 50]	< 1 µg/mL

---

system: Aspergillus flavus; assay: MIC, RPMI medium; assay type: cell-based; conditions: Aspergillus flavus, MIC banded into grades, read-out: MIC grade, A. flavus
# MIC per record follows
quantity_measured: MIC

Cc1cc(C)nc(N2CCN(c3ccc(NC(=O)C(=O)c4c(-c5ccccc5)cc(C)n4C)cc3)CC2)c1 [Example 1]	< 1 µg/mL
COCCn1ccc(-c2ccccc2)c1C(=O)C(=O)Nc1ccccc1 [Example 81]	> 10 µg/mL
Cc1cc(-c2ccccc2)c(C(=O)C(=O)Nc2ccc(N3CCN(CC(C)C)CC3)cc2F)n1C [Example 105]	< 1 µg/mL
Cc1cc(C)nc(N2CCN(c3ccc(NC(=O)C(=O)c4c(-c5ccccc5)cc(C)n4Cc4cccnc4)cc3)CC2)c1 [Example 93]	> 10 µg/mL
CCCNC(=O)C(=O)c1c(-c2ccccc2)ccn1CCOC [Example 82]	> 10 µg/mL
CSCCn1c(C)cc(-c2ccccc2)c1C(=O)C(=O)Nc1ccc(N2CCN(c3cc(C)cc(C)n3)CC2)cc1 [Example 133]	> 10 µg/mL
COCCn1ccc(-c2ccccc2Cl)c1C(=O)C(=O)Nc1ccc(N2CCN(c3cc(C)cc(C)n3)CC2)cc1 [Example 57]	> 10 µg/mL
Cc1cc(C)nc(N2CCN(c3ccc(NC(=O)C(=O)c4cc(-c5ccccc5)cn4CCN(C)C)cc3)CC2)c1 [Example 85]	> 10 µg/mL
